Each recorded value in this set is attributed to ChEMBL document CHEMBL5046254.

MIC90 values by entry
Tested on: Mycolicibacterium aurum
procedure-summary: Antimycobacterial activity against Mycobacterium aurum ATCC 10437 cultured in GAST media incubated for 72 hrs by resazurin microtiter assay
Type: functional

compound: Oc1ccccc1C1=NNC(c2ccc(Br)cc2)C1 (centres undefined)
study-system: Mycolicibacterium aurum
MIC90 [µg/mL]: 8

compound: NC(=S)N1N=C(c2ccccc2O)CC1c1ccccc1 (centres undefined)
study-system: Mycolicibacterium aurum
MIC90 [µg/mL]: 64

compound: Oc1ccccc1C1=NNC(c2ccc(Cl)cc2)C1 (centres undefined)
study-system: Mycolicibacterium aurum
MIC90 [µg/mL]: 16

compound: NC(=S)N1N=C(c2ccccc2O)CC1c1ccc(O)cc1 (centres undefined)
study-system: Mycolicibacterium aurum
MIC90 [µg/mL]: 64
